- measurement protocol: Stability in human serum (HPLC)
- Format: in vitro ADME
- condition info: 37 °C
value type: decay constant in human serum (s⁻¹)
Answers are plain numbers, in s⁻¹.

Memo: "O=C(NO)c1ccc(CN2CCCCc3ccccc32)c(F)c1" , reported decay constant in human serum: 6.3e-06

###

- measurement protocol: Stability in human serum (HPLC)
- Format: in vitro ADME
- condition info: human, 37 °C, calculated by formula of Figure S2b, read-out: half-life (t1/2) in human serum (converted)
value type: half-life at 5 mM

The recorded half-life at 5 mM for entry "O=C(NO)c1ccc(CN2CCCCc3ccccc32)c(F)c1" equals ~30.2 h

Value source: paper PMC10767396
